Listed next: entries and their corresponding IC50.
- systemUnderTest: DNA-PK (Homo sapiens)
- Construct: purchased Invitrogen PR9107A
- testName: DNA-PK Assay for Biochemical Enzymatic Inhibition (ADP Glo Kinase assay)
- details: DNA-PK enzyme, Table 1

Test system DNA-PK (Homo sapiens); read-out IC50; what value for O=C(Nc1ccncc1)[C@H]1CC[C@@H](Oc2nc(N3CCOCC3)cc3ncccc23)CC1 [Compound 154e] ?
1 to 10 nM

Next:
Field: IC50 (DNA-PK (Homo sapiens)). Entry: O=C(NC1CCOCC1)[C@H]1CC[C@@H](Oc2nc(N3CCOCC3)cc3ncccc23)CC1 [Compound 154b]
10 to 150 nM

Param readout = IC50; param system = DNA-PK (Homo sapiens); param query = CC(=O)NCCOc1cnc(N[C@H]2CC[C@@H](Oc3nc(N4CCOCC4)cc4ncccc34)CC2)nc1 ; response: value
0.5 to 1 nM

Provide the documented IC50 with DNA-PK (Homo sapiens) as the system for O=C(O)c1cnc2cc(N3CCOCC3)nc(O[C@H]3CC[C@@H](n4ccnc4)CC3)c2c1
< 0.5 nM

Notebook entry, DNA-PK (Homo sapiens) assay: IC50 of CONC(=O)COc1cnc(N[C@H]2CC[C@@H](Oc3nc(N4CCOCC4)cc4ncccc34)CC2)nc1 = ?
1 to 10 nM

Which measured IC50 belongs to O=S(=O)(CF)Nc1cnc2cc(N3CCOCC3)nc(O[C@H]3CC[C@@H](Nc4ncccn4)CC3)c2c1 , tested on DNA-PK (Homo sapiens)?
< 0.5 nM

# value lookup — system DNA-PK (Homo sapiens), readout IC50, item O=C(Cn1c(=O)n(C2CCOCC2)c2nc(N[C@H]3CC[C@@H](Oc4nc(N5CCOCC5)cc5ncccc45)CC3)ncc21)N1CCC1
< 0.5 nM

Missing value: IC50, DNA-PK (Homo sapiens), entry O=C(Cn1c(=O)n(C2CCOCC2)c2nc(N[C@H]3CC[C@@H](Oc4nc(N5CCOCC5)cc5ncccc45)CC3)ncc21)N1CCOCC1 . Fill in?
< 0.5 nM

For DNA-PK (Homo sapiens), provide IC50 of CN(C)S(=O)(=O)Nc1cnc2cc(N3CCOCC3)nc(O[C@H]3CC[C@@H](Nc4ncccn4)CC3)c2c1 please.
< 0.5 nM

Tell me reported IC50 for O=C(O)COc1cnc(N[C@H]2CC[C@@H](Oc3nc(N4CCOCC4)cc4ncccc34)CC2)nc1 , tested with DNA-PK (Homo sapiens).
< 0.5 nM

Give IC50 (DNA-PK (Homo sapiens)) of the following compound: c1cnc2cc(N3CCOCC3)nc(O[C@H]3CC[C@@H](Nc4ncc(OCCN5CCOCC5)cn4)CC3)c2c1
< 0.5 nM

# query: IC50 | item CN(C)C(=O)COc1cnc(N[C@H]2CC[C@@H](Oc3nc(N4CCOCC4)cc4ncccc34)CC2)nc1 | system: DNA-PK (Homo sapiens)
0.5 to 1 nM

# value lookup — system DNA-PK (Homo sapiens), readout IC50, item COc1ccc(NC(=O)N[C@H]2CC[C@@H](Oc3nc(N4CCOCC4)cc4ncccc34)CC2)cc1
0.5 to 1 nM

Give the reported IC50 for c1cnc2cc(N3CCOCC3)nc(O[C@H]3CC[C@@H](Nc4ncc(OCCN5CCNCC5)cn4)CC3)c2c1 (system: DNA-PK (Homo sapiens)).
< 0.5 nM

Enter reported IC50 observed with DNA-PK (Homo sapiens) for O=C(Nc1ccccc1)N[C@H]1CC[C@@H](Oc2nc(N3CCOCC3)cc3ncccc23)CC1
0.5 to 1 nM

// map CCOC(=O)c1cnc(N[C@H]2CC[C@@H](Oc3nc(N4CCOCC4)cc4ncccc34)CC2)nc1NC1CCOCC1 to recorded IC50 (system: DNA-PK (Homo sapiens))
10 to 150 nM

Param readout = IC50; param system = DNA-PK (Homo sapiens); param query = FC1(F)CN(c2cc3ncccc3c(O[C@H]3CC[C@@H](n4ccnc4)CC3)n2)CC(F)(F)O1 ; response: value
10 to 150 nM

What IC50 appears in the records for this compound with DNA-PK (Homo sapiens)? NC(=O)COc1cnc(N[C@H]2CC[C@@H](Oc3nc(N4CCOCC4)cc4ncccc34)CC2)nc1
< 0.5 nM

Query IC50 on DNA-PK (Homo sapiens) for CS(=O)(=O)c1cnc2cc(N3CCOCC3)nc(O[C@H]3CC[C@@H](Nc4ncccn4)CC3)c2c1 [Compound 200b]
< 0.5 nM
